Values from patent KR20130126543A

- assayed_system: T1, IL-6R-Fc 항원 (human, UniProt P08887 20-365, limits assumed)
- T1 construct: domain: IL-6R full domain; Made in-house as IL-6R-Fc; also called IL-6R full; IL-6R full domain인 단백질; not shown: Fc part (vector pYK 604)
- T1 sequence (looked up): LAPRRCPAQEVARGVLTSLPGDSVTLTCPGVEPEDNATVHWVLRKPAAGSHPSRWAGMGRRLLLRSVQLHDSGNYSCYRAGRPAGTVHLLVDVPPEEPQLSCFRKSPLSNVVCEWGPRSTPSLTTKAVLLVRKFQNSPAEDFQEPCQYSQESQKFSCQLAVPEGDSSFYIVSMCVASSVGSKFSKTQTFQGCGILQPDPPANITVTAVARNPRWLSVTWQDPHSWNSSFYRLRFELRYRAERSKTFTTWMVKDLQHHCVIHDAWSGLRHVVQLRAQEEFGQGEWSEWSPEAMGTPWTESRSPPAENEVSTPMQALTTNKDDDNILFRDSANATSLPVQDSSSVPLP
- test_details: ELISA titration on coated IL-6R (repeats the 3rd table)
Exercise: state measured Kd for each of the binders provided.
Answers are plain numbers, in nM.

Look over these answered cases.
Prompt: Bench note: what Kd did 항 IL-6R 단클론 항체 F2 (antibody, V domains shown) VH: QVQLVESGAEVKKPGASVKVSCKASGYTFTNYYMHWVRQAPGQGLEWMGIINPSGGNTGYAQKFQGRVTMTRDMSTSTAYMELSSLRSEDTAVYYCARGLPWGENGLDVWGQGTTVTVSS VL: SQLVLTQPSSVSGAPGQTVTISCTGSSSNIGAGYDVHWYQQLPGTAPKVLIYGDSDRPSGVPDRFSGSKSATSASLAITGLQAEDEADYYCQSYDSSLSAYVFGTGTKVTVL show?
Completion: 0.35

Prompt: Okay, and 항 IL-6R 단클론 항체 B10 (antibody, V domains shown) VH: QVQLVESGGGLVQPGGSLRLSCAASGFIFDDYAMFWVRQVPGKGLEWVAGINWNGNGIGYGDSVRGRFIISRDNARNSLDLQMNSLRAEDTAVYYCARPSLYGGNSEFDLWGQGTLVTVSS VL: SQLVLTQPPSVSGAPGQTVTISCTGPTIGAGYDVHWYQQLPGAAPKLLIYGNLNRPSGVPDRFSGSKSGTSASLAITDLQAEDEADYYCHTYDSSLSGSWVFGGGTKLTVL ?
Completion: 4.3

Prompt: Okay, and 항 IL-6R 단클론 항체 A7 (antibody, V domains shown) VH: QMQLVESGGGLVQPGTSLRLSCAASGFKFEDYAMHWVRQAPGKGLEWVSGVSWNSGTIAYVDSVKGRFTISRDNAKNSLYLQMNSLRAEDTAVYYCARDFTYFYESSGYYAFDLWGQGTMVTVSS VL: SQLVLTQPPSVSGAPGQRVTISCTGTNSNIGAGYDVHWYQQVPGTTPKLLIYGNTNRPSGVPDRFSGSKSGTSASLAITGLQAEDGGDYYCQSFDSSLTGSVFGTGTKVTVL ?
Completion: 2.3

Continuing:
Prompt: Bench note: what Kd did 항 IL-6R 단클론 항체 D2 (antibody, V domains shown) VH: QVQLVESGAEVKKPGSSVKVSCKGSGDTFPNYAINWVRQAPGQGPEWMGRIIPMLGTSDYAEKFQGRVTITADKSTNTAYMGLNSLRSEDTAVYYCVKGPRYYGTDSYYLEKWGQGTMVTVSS VL: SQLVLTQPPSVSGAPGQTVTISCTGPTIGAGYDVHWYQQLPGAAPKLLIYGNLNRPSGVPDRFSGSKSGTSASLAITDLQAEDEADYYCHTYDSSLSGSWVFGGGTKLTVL show?
Completion: 7.5
